Each recorded value in this set is attributed to ChEMBL document CHEMBL1124658.

- ASSAYED SYSTEM: Muscarinic acetylcholine receptor
- PROCEDURE TEXT: Compound was tested for the concentration that inhibited the specific binding of (-)-[3H]-NMS to muscarinic acetylcholine receptor in the rat cerebral cortex.
- Assay type: tissue-based
REPORTED ENDPOINT: Ki (µM)

A: CC(=O)N1C(=O)CCC1C#CC[N+](C)(C)C.[I-] (stereo unspecified)
B: CN1C(=O)CCC1C#CC[N+](C)(C)C.[I-] (stereo unspecified)
C: CC(=O)N1C(=O)CCC1C#CCN1CCCC1 (stereo unspecified)
D: CC(=O)N1C(=O)CCC1C#CCN(C)C (stereo unspecified)
List by increasing Ki. Give the labels in the order specified. C, A, D, B

A: CN(C)CC#CC1CCC(=O)N1C (stereo unspecified)
B: CC(=O)N1CCCC1C#CC[N+](C)(C)C.[I-] (stereo unspecified)
Which of the two gives a bigger number for Ki: A or B ? Give the chosen item's label as your response. A
